- testDetails: in vitro
- testConditions: PAMPA, pH 7.4, PAMPA Pe_avg
Positions of bridges follow the written chain, without caps; N, C: chain ends. Non-standard residues stand in square brackets, D forms with d. Residues, ends and D or L forms follow the SMILES beside them. NMeC = CN[C@@H](CS)C(=O)O; NMeA = CN[C@@H](C)C(=O)O; dAbu = CC[C@@H](N)C(=O)O; dNMeA = CN[C@H](C)C(=O)O; Abu = CC[C@H](N)C(=O)O; Nleu = CC(C)CNCC(=O)O; NEtG = CCNCC(=O)O
measurementType: Papp at 10 µM (×10⁻⁶ cm/s)
A number alone suffices; assume ×10⁻⁶ cm/s.

Which measured Papp at 10 µM value corresponds to CCOC(=O)[C@@H]1CSCC(=O)N[C@H](CC)C(=O)N(C)[C@@H](C)C(=O)N[C@H](CC(C)C)C(=O)N2CCC[C@H]2C(=O)N(CC)CC(=O)N[C@H](CC(C)C)C(=O)N(C)[C@H](C)C(=O)N[C@@H](CC(C)C)C(=O)N1C [JF206_ALD_DDDD_Ethyl] ({CH2CO}-[dAbu][NMeA][dL]P[NEtG][dL][dNMeA]L[NMeC]-OEt; thioether N-9) ?
0.194

# iterate: CCOC(=O)[C@@H]1CSCC(=O)N[C@@H](CC)C(=O)N(C)[C@@H](C)C(=O)N[C@@H](CC(C)C)C(=O)N2CCC[C@@H]2C(=O)N(CC)CC(=O)N[C@H](CC(C)C)C(=O)N(C)[C@H](C)C(=O)N[C@@H](CC(C)C)C(=O)N1C [JF206_ADL_LLDD_Ethyl] ({CH2CO}-[Abu][NMeA]L[dP][NEtG][dL][dNMeA]L[NMeC]-OEt; thioether N-9)
0.018

Request: CCOC(=O)[C@@H]1CSCC(=O)N[C@H](CC)C(=O)N(C)[C@@H](C)C(=O)N[C@@H](CC(C)C)C(=O)N2CCC[C@@H]2C(=O)N(CC(C)C)CC(=O)N[C@@H](CC(C)C)C(=O)N(C)[C@@H](C)C(=O)N[C@@H](CC(C)C)C(=O)N1C [JF206_ADD_DLLL_Isobutyl] ({CH2CO}-[dAbu][NMeA]L[dP][Nleu]L[NMeA]L[NMeC]-OEt; thioether N-9)
0.688
